Tested on: Salmonella typhi
Assay: MIC/MBC, paper disk diffusion
Assay type: cell-based
Conditions: Salmonella enterica; S. typhi; read-out: MBC
Method: Antimicrobial activities of the newly formed Schiff bases (6a–d, 7a–d, 8a–d, and 9a–d) and reference drugs were evaluated against three Gram-positive, three Gram-negative, and two fungi strain at Al-Azhar University, Cairo, Egypt. The inhibition zones (IZ, in mm ± standard deviation) and the minimal inhibitory concentration (MIC) (μg/mL) were determined by the conventional paper disk diffusion method. In Vitro Antimicrobial Activities […] DMSO was used for dissolving […] the tested microorganisms. […]
Provide the recorded MBC for the entries that follow.
Report the figure in µg/mL without appending any unit label.

For this compound ( `COc1ccc(Nc2n[nH]c(N=Cc3c(C)n(C)n(-c4ccccc4)c3=O)c2C(=O)Nc2ccccc2)cc1` ), measured MBC is 28.1

Please fill in: MBC reported for `COc1ccc(Nc2n[nH]c(N=Cc3ccc(N4CCCCC4)cc3)c2C(N)=O)cc1` = 12.5

// MBC lookup, compound = `COc1ccc(Nc2n[nH]c(N=Cc3c(C)nn(-c4ccccc4)c3Cl)c2C(=O)Nc2ccc(C)cc2)cc1` , result: 56.2

MBC recorded for this compound, `COc1ccc(Nc2n[nH]c(N=Cc3ccc(N4CCCCC4)cc3)c2C(=O)Nc2ccc(Cl)cc2)cc1` , is 36.5

// `COc1ccc(Nc2n[nH]c(N=Cc3c(C)nn(-c4ccccc4)c3Cl)c2C(=O)Nc2ccccc2)cc1` : MBC value = 6.63

What the record says about `COc1ccc(Nc2n[nH]c(N=Cc3cc(OC)c(OC)c(OC)c3)c2C(=O)Nc2ccccc2)cc1` : MBC is 10.6

----------
Parameter Measured: melting point

# melting point (compound: `COc1ccc(Nc2n[nH]c(N=Cc3cc(OC)c(OC)c(OC)c3)c2C(=O)Nc2ccc(C)cc2)cc1` ) is 234 to 236 °C

compound `COc1ccc(Nc2n[nH]c(N=Cc3cc(OC)c(OC)c(OC)c3)c2C(=O)Nc2ccc(Cl)cc2)cc1` , melting point observed: 213 to 215 °C

Entry `COc1ccc(Nc2n[nH]c(N=Cc3c(C)n(C)n(-c4ccccc4)c3=O)c2C(N)=O)cc1` , melting point reported as 274 to 276 °C

Record `COc1ccc(Nc2n[nH]c(N=Cc3c(C)nn(-c4ccccc4)c3Cl)c2C(N)=O)cc1` . Reported melting point: 270 to 272 °C

For reference, reported melting point for `COc1ccc(Nc2n[nH]c(N=Cc3cc(OC)c(OC)c(OC)c3)c2C(N)=O)cc1` stands at 222 to 224 °C

----------
Molecular target: S. aureus DNA Gyrase (Staphylococcus aureus, UniProt P0A0K8+P20831)
Sequence (P20831 whole entry): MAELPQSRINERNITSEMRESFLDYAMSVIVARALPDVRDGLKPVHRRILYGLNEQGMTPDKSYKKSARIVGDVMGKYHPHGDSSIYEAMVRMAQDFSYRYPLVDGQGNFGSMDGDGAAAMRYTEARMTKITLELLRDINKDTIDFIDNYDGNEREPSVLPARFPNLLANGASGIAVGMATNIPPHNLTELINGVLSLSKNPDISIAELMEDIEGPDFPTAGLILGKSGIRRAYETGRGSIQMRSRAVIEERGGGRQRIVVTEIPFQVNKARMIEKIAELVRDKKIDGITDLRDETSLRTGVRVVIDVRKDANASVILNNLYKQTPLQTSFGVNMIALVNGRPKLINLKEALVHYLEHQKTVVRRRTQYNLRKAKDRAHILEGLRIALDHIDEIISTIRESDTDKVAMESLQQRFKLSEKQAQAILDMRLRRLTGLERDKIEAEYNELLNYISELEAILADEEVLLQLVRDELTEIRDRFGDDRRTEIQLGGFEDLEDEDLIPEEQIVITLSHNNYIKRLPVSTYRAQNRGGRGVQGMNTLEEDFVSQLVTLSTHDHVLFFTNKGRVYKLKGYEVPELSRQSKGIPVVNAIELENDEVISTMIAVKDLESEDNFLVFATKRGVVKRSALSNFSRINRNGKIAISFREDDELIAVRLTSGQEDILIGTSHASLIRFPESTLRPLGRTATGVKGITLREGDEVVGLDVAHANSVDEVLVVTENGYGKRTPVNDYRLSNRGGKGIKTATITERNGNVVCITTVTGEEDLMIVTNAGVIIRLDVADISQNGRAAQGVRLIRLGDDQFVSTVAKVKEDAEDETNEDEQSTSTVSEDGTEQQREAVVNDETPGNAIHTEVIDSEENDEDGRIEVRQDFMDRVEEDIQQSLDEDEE
Sequence (P0A0K8 whole entry): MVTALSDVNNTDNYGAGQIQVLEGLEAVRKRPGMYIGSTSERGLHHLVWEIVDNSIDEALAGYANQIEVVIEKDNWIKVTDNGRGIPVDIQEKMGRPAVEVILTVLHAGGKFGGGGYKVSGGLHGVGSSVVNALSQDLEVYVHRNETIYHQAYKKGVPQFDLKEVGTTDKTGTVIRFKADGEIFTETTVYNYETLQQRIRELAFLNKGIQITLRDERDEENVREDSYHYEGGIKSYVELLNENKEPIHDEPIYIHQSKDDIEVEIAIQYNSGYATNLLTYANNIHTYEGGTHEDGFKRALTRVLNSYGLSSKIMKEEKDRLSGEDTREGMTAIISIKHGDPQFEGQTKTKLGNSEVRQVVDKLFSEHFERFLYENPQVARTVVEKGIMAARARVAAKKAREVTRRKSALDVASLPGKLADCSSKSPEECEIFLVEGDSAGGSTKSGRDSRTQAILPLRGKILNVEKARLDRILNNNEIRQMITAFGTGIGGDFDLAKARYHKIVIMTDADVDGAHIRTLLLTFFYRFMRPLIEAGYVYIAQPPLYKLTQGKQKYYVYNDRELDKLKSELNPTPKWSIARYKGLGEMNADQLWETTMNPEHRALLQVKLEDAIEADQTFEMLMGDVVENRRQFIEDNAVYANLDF
Assay: DNA gyrase enzyme assay
Details: Mean ± SEM
Please provide measured pIC50 for the entries that follow.
pIC50 (log units): -log10 of the concentration in mol/L.

Summary: `COc1ccc(Nc2n[nH]c(N=Cc3ccc(N4CCCCC4)cc3)c2C(N)=O)cc1` , S. aureus DNA Gyrase (Staphylococcus aureus, UniProt P0A0K8+P20831), pIC50 = 5.11

The measured pIC50 that `COc1ccc(Nc2n[nH]c(N=Cc3cc(OC)c(OC)c(OC)c3)c2C(=O)Nc2ccccc2)cc1` showed for S. aureus DNA Gyrase (Staphylococcus aureus, UniProt P0A0K8+P20831) is 4.98
